// data source = paper PMC8296708

experiment: Pharmacokinetic study: plasma, blood and quadriceps Givinostat levels after single oral dose (LC-MS/MS); format: in vivo, mdx mice (C57BL/10ScSn-Dmd^mdx/J); conditions: male, C57BL/10ScSn-Dmd^mdx/J (mdx), mouse; plasma, 37.5 mg/kg single oral dose, mdx mice
experimental endpoint: Tmax (min)
Express the result in min but write the number alone.

Problem: Which Tmax value belongs to CCN(CC)Cc1ccc2cc(COC(=O)Nc3ccc(C(=O)NO)cc3)ccc2c1 ?
Solution: 30

* * *

assay: Pharmacokinetic study: plasma, blood and quadriceps Givinostat levels after single oral dose (LC-MS/MS); type: in vivo, mdx mice (C57BL/10ScSn-Dmd^mdx/J); conditions: male, C57BL/10ScSn-Dmd^mdx/J (mdx), mouse; blood, 25 mg/kg single oral dose, mdx mice
experimental endpoint: Tmax (h)
Respond numerically; units are h and should not be typed.

Problem: Tell me the measured Tmax of CCN(CC)Cc1ccc2cc(COC(=O)Nc3ccc(C(=O)NO)cc3)ccc2c1 [Givinostat] , please.
Solution: 1.5

* * *

experiment: Pharmacokinetic study: plasma, blood and quadriceps Givinostat levels after single oral dose (LC-MS/MS); format: in vivo, mdx mice (C57BL/10ScSn-Dmd^mdx/J); details: male, C57BL/10ScSn-Dmd^mdx/J (mdx), mouse, quadriceps muscle, po, 25 mg/kg, muscle (quadriceps), 25 mg/kg single oral dose, mdx mice; read-out: Cmax
experimental endpoint: Cmax (ng/g)
Give the value, in units of ng/g, as a plain number.

Problem: Given CCN(CC)Cc1ccc2cc(COC(=O)Nc3ccc(C(=O)NO)cc3)ccc2c1 , state its recorded Cmax.
Solution: 607

* * *

experiment: Pharmacokinetic study: plasma, blood and quadriceps Givinostat levels after single oral dose (LC-MS/MS); assay type: in vivo, mdx mice (C57BL/10ScSn-Dmd^mdx/J); settings: male, C57BL/10ScSn-Dmd^mdx/J (mdx), mouse, blood, po, 37.5 mg/kg, blood, 37.5 mg/kg single oral dose, mdx mice; read-out: Cmax
experimental endpoint: Cmax (ng/mL)
Number only, in ng/mL; omit the unit.

Problem: Would you mind telling me what Cmax value was observed for CCN(CC)Cc1ccc2cc(COC(=O)Nc3ccc(C(=O)NO)cc3)ccc2c1 [Givinostat] ?
Solution: 1120

* * *

assay: Pharmacokinetic study: plasma, blood and quadriceps Givinostat levels after single oral dose (LC-MS/MS); assay type: in vivo, mdx mice (C57BL/10ScSn-Dmd^mdx/J); conditions: male, C57BL/10ScSn-Dmd^mdx/J (mdx), mouse; blood, 25 mg/kg single oral dose, mdx mice
experimental endpoint: AUC (ng·h/mL)
Enter your answer as a number in ng·h/mL; do not include the unit.

Problem: I am curious: what AUC value has been reported for CCN(CC)Cc1ccc2cc(COC(=O)Nc3ccc(C(=O)NO)cc3)ccc2c1 [Givinostat] ?
Solution: 1810

* * *

assay: Pharmacokinetic study: plasma, blood and quadriceps Givinostat levels after single oral dose (LC-MS/MS); type: in vivo, mdx mice (C57BL/10ScSn-Dmd^mdx/J); settings: male, C57BL/10ScSn-Dmd^mdx/J (mdx), mouse, blood, po, 10 mg/kg, blood, 10 mg/kg single oral dose, mdx mice; read-out: Cmax
experimental endpoint: Cmax (ng/mL)
Just the number in ng/mL, nothing appended.

Problem: What Cmax value was documented for this compound, CCN(CC)Cc1ccc2cc(COC(=O)Nc3ccc(C(=O)NO)cc3)ccc2c1 ?
Solution: 170

* * *

assay: Pharmacokinetic study: plasma, blood and quadriceps Givinostat levels after single oral dose (LC-MS/MS); assay type: in vivo, mdx mice (C57BL/10ScSn-Dmd^mdx/J); conditions: male, C57BL/10ScSn-Dmd^mdx/J (mdx), mouse, quadriceps muscle and plasma, po, 37.5 mg/kg, 37.5 mg/kg single oral dose, mdx mice; read-out: AUCtot Muscle/Plasma ratio
experimental endpoint: Kp
I only need the number, thanks.

Problem: Data request, read-out Kp, for CCN(CC)Cc1ccc2cc(COC(=O)Nc3ccc(C(=O)NO)cc3)ccc2c1
Solution: 3.2

* * *

assay: Pharmacokinetic study: plasma, blood and quadriceps Givinostat levels after single oral dose (LC-MS/MS); type: in vivo, mdx mice (C57BL/10ScSn-Dmd^mdx/J); conditions: male, C57BL/10ScSn-Dmd^mdx/J (mdx), mouse, plasma, po, 5 mg/kg, plasma, 5 mg/kg single oral dose, mdx mice; read-out: Cmax
experimental endpoint: Cmax (ng/mL)
The figure you give is taken to be in ng/mL; do not add the unit.

Problem: So what does the record say about Cmax for CCN(CC)Cc1ccc2cc(COC(=O)Nc3ccc(C(=O)NO)cc3)ccc2c1 ?
Solution: 24

* * *

assay: Pharmacokinetic study: plasma, blood and quadriceps Givinostat levels after single oral dose (LC-MS/MS); type: in vivo, mdx mice (C57BL/10ScSn-Dmd^mdx/J); settings: male, C57BL/10ScSn-Dmd^mdx/J (mdx), mouse, blood and plasma; 37.5 mg/kg single oral dose, mdx mice; read-out: AUCtot Blood/Plasma ratio
experimental endpoint: blood plasma ratio
Form: value (number only, do not type unit).

Problem: Quick one: blood plasma ratio of CCN(CC)Cc1ccc2cc(COC(=O)Nc3ccc(C(=O)NO)cc3)ccc2c1 [Givinostat] ?
Solution: 1.4

* * *

test: Pharmacokinetic study: plasma, blood and quadriceps Givinostat levels after single oral dose (LC-MS/MS); type: in vivo, mdx mice (C57BL/10ScSn-Dmd^mdx/J); conditions: male, C57BL/10ScSn-Dmd^mdx/J (mdx), mouse; blood, 5 mg/kg single oral dose, mdx mice
experimental endpoint: Tmax (h)
Use h as the unit, but write only the number.

Problem: # input compound: CCN(CC)Cc1ccc2cc(COC(=O)Nc3ccc(C(=O)NO)cc3)ccc2c1 ; wanted: its Tmax
Solution: 3

* * *

assay: Pharmacokinetic study: plasma, blood and quadriceps Givinostat levels after single oral dose (LC-MS/MS); format: in vivo, mdx mice (C57BL/10ScSn-Dmd^mdx/J); settings: male, C57BL/10ScSn-Dmd^mdx/J (mdx), mouse, plasma, po, 25 mg/kg, plasma, 25 mg/kg single oral dose, mdx mice; read-out: Cmax
experimental endpoint: Cmax (ng/mL)
Only the number, expressed in ng/mL, is required.

Problem: Need Cmax, item CCN(CC)Cc1ccc2cc(COC(=O)Nc3ccc(C(=O)NO)cc3)ccc2c1
Solution: 416

* * *

test: Pharmacokinetic study: plasma, blood and quadriceps Givinostat levels after single oral dose (LC-MS/MS); type: in vivo, mdx mice (C57BL/10ScSn-Dmd^mdx/J); details: male, C57BL/10ScSn-Dmd^mdx/J (mdx), mouse; plasma, 10 mg/kg single oral dose, mdx mice
experimental endpoint: Tmax (h)
Note: unit h is implicit; provide only the numeric part.

Problem: Fill in: Tmax of CCN(CC)Cc1ccc2cc(COC(=O)Nc3ccc(C(=O)NO)cc3)ccc2c1 [Givinostat] is ___
Solution: 2

* * *

assay: Pharmacokinetic study: plasma, blood and quadriceps Givinostat levels after single oral dose (LC-MS/MS); type: in vivo, mdx mice (C57BL/10ScSn-Dmd^mdx/J); details: male, C57BL/10ScSn-Dmd^mdx/J (mdx), mouse, quadriceps muscle and plasma, po, 25 mg/kg, 25 mg/kg single oral dose, mdx mice; read-out: AUCtot Muscle/Plasma ratio
experimental endpoint: Kp
Kindly provide the number alone.

Problem: Query (molecule): CCN(CC)Cc1ccc2cc(COC(=O)Nc3ccc(C(=O)NO)cc3)ccc2c1 [Givinostat] ; field requested: Kp
Solution: 2.8

* * *

Assay: Pharmacokinetic study: plasma, blood and quadriceps Givinostat levels after single oral dose (LC-MS/MS)
Format: in vivo, mdx mice (C57BL/10ScSn-Dmd^mdx/J)
Settings: male, C57BL/10ScSn-Dmd^mdx/J (mdx), mouse; plasma, 10 mg/kg single oral dose, mdx mice
Description: For the PK study, C57BL/10ScSn-Dmd^mdx/J (Stock No: 001801) 9-week-old male mice were purchased from The Jackson Laboratories (Bar Harbor, Maine, USA). […] Mice were maintained under isoflurane anesthesia. […] This blood was analyzed in order to subtract the blood content of Givinostat from the muscle homogenate. […] Givinostat was determined in mouse plasma (50 μL) following a protein precipitation (200 μL of 1% HCOOH in acetonitrile) and Ostro (Waters) plate filtration. […]
experimental endpoint: AUC (ng·h/mL)
Numeric answer only, unit ng·h/mL assumed.

Problem: Quick check: AUC of CCN(CC)Cc1ccc2cc(COC(=O)Nc3ccc(C(=O)NO)cc3)ccc2c1 [Givinostat] ?
Solution: 261

* * *

test: Pharmacokinetic study: plasma, blood and quadriceps Givinostat levels after single oral dose (LC-MS/MS); type: in vivo, mdx mice (C57BL/10ScSn-Dmd^mdx/J); conditions: male, C57BL/10ScSn-Dmd^mdx/J (mdx), mouse; muscle (quadriceps), 5 mg/kg single oral dose, mdx mice
experimental endpoint: Tmax (h)
Give just the numeric value; h need not be written.

Problem: Look up Tmax for this molecule: CCN(CC)Cc1ccc2cc(COC(=O)Nc3ccc(C(=O)NO)cc3)ccc2c1 [Givinostat]
Solution: 3

* * *

experiment: Pharmacokinetic study: plasma, blood and quadriceps Givinostat levels after single oral dose (LC-MS/MS); format: in vivo, mdx mice (C57BL/10ScSn-Dmd^mdx/J); settings: male, C57BL/10ScSn-Dmd^mdx/J (mdx), mouse; muscle (quadriceps), 25 mg/kg single oral dose, mdx mice
experimental endpoint: Tmax (h)
Numeric only. Scale: h

Problem: I'd like to know its Tmax. The compound in question is CCN(CC)Cc1ccc2cc(COC(=O)Nc3ccc(C(=O)NO)cc3)ccc2c1 [Givinostat]
Solution: 2
